Data credit: patent US8389565B2

molecular target: Maltase Glucoamylase (MGA) (Homo sapiens, UniProt O43451); assay: Inhibition of recombinant human maltase glucoamylase (MGA), maltose substrate, glucose oxidase readout; type: biochemical
Sequence (O43451 87-954 limits assumed): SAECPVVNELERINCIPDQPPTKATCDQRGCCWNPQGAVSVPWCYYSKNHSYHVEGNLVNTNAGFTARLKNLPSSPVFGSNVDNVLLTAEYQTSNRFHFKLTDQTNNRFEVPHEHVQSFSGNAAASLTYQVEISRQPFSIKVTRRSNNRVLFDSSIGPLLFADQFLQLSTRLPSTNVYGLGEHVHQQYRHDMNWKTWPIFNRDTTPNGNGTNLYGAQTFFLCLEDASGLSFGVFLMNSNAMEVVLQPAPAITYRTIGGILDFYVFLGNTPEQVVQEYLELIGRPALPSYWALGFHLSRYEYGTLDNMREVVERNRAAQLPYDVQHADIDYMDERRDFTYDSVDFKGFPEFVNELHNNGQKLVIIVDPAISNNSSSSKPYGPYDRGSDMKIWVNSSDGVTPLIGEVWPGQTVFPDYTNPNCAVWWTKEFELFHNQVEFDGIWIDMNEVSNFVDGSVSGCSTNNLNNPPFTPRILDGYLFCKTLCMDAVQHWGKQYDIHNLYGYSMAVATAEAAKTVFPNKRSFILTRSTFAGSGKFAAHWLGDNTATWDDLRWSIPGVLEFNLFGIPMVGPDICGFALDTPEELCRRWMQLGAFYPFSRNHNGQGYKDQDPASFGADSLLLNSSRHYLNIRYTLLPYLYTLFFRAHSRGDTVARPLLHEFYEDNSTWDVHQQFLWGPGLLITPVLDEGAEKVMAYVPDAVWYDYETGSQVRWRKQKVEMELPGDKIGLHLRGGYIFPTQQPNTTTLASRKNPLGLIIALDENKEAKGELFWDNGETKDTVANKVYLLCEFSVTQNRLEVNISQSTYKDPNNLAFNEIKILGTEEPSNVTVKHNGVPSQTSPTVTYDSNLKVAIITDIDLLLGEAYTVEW
property: inhibitory activity against recombinant human MGA (in words)

[[record]]
compound = "O=S(=O)([O-])O[C@H]([C@H](O)[C@@H](O)CO)[C@H](O)C[S@+]1C[C@@H](O)[C@H](O)[C@H]1CO [Compound 95]"
tested_target = "Maltase Glucoamylase (MGA) (Homo sapiens, UniProt O43451)"
reported_value = "active"

[[record]]
compound = "O=S(=O)([O-])O[C@@H](CO)[C@H](O)C[S@+]1C[C@@H](O)[C@@H](O)[C@H]1CO [Compound 233]"
tested_target = "Maltase Glucoamylase (MGA) (Homo sapiens, UniProt O43451)"
reported_value = "not effective inhibitors"

[[record]]
compound = "O=S(=O)([O-])O[C@@H](CO)[C@H](O)C[S@+]1C[C@H](O)[C@H](O)[C@H]1CO [Compound 234]"
tested_target = "Maltase Glucoamylase (MGA) (Homo sapiens, UniProt O43451)"
reported_value = "not effective inhibitors"

[[record]]
compound = "O=S(=O)([O-])O[C@@H]([C@H](O)[C@@H](O)CO)[C@H](O)C[S@+]1C[C@@H](O)[C@H](O)[C@H]1CO [Compound 96]"
tested_target = "Maltase Glucoamylase (MGA) (Homo sapiens, UniProt O43451)"
reported_value = "active"

